tested-on: cynomolgus LIV-1 (cynomolgus, UniProt A0A2K5WH46 30-741)
Sequence (A0A2K5WH46 entry or part of it): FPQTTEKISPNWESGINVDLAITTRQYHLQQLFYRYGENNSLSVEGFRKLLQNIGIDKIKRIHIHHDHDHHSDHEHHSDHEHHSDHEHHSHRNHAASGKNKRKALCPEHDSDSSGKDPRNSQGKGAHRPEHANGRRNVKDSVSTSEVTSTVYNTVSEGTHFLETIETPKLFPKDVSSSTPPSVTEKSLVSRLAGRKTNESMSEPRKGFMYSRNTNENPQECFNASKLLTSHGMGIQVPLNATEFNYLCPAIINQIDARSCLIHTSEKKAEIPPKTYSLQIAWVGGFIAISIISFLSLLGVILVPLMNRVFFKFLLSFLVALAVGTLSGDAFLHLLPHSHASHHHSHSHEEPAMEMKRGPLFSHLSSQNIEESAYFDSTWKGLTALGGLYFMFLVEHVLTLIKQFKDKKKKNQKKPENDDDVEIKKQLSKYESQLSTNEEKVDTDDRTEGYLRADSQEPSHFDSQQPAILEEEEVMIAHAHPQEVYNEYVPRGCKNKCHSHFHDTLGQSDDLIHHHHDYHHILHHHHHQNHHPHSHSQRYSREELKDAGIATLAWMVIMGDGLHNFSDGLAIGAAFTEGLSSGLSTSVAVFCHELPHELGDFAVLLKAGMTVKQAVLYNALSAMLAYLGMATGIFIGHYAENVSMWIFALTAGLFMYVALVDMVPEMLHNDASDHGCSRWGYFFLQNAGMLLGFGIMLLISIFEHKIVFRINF
experiment-description: FACS, HEK293/Cyno_LIV-1 cells
# Top (MFI) annotations
Give a bare numeral; the unit MFI is implied.

- binder: "108H1D4 (antibody, V domains shown, Tested as chimeric antibody) VH: EVKLVESGGDLVQPGGSRKLSCAASGFTFSDYGMAWFRQAPGKGPEWVAFISNLAYNIYYADTVTGRFTISRENARNTLYLEMSSLRSEDTAMYYCAREGGITTVPATDYFDYWGQGTTLTVSS VL: DIQMTQTTSSLSASLGDRVTFSCRASQDIRNYLNWYQQKPDGTVKLLIYYTSRLHSGVPSRFSGSGSGTDYSLTINNLEQEDLATYFCQQVNALPLTFGAGTKLELK"
  Top (MFI): 762
- binder: "56B3E6 (antibody, V domains shown, Tested as chimeric antibody) VH: EVQLQQSGAELVRSGASVKLSCTASGFNIKDYYIHWVKQRPEQGLEWIGWIDPENDDTEYAPKFQGKATMTADTSSNTAYLHLSSLTSEDTAVYYCPHGGGFRVFDSWGQGTTLTVSS VL: DVLMTQTPLSLPVSLGDQASISCRSSQDIVHSNGNTYLEWYLQKPGQSPKLLIYKVSNRFSGVPDRFSGSGSGTDFTLKISRVEAEDLGVYYCFQGSHVPWTFGGGTKLEIK"
  Top (MFI): 9280

Now take the following binder into account.
So what does the record say about Top (MFI) for 94C4B9 (antibody, V domains shown, Tested as chimeric antibody) VH: EVQLQQSGTVLARPGASVKMSCKASGYTFINYWMHWVKQRPGQGLEWIGAFYPGNSDTSYNQKFKDKAKLTAVTSTSTAYMEFSSLTNEDSAVYYCTRDFTAVPYFDYWGQGTTLTVSS VL: DILMTQTPLSLPVSLGDQASISCRSSQSIVHSNGNTYLEWYLQKPGQSPKLLIYKVSNRFSGVPDRFSGSGSGTDFTLKISRVEAEDLGVYYCFQGSYVPLTFGVGTKLELK ?
7860
